test system: MCF7 cells; assay: Calcein AM cytotoxicity assay, MCF7; format: cell-based; conditions: Homo sapiens; MCF7, Calcein AM, 72 h; read-out: IC50
Endpoint Label: IC50

Compound Smiles | IC50
CC(C)CN=C=S | > 50 µM
S=C=NCC1CCCCC1 | > 30 µM
CC(C)(C)CN=C=S | > 50 µM

Let's switch to this compound now.
In: Give IC50 for Cc1c(N=C=S)c(=O)n(-c2ccccc2)n1C
Out: > 50 µM

---

tested on: Du145 cells; experiment: Cell Titer-Glo cytotoxicity assay, Du145; type: cell-based; settings: Homo sapiens, DU-145; Du145, Cell Titer-Glo, 72 h; read-out: IC50
Endpoint Label: IC50 (µM)
The reply should contain only the number, in µM.

Compound | Target Of Assay | Measurement Unit | IC50
S=C=NCC1CCCCC1 [Compound 18, (isothiocyanatomethyl)cyclohexane] | Du145 cells | µM | 24.4
S=C=NCc1cccc2ccccc12 [Compound 30, 1-(isothiocyanatomethyl)naphthalene] | Du145 cells | µM | 16.8
S=C=NCc1ccccc1-c1ccccc1 [Compound 33, 1-(isothiocyanatomethyl)-2-phenylbenzene] | Du145 cells | µM | 5.25
S=C=NCc1ccc(Oc2ccccc2)cc1 [Compound 36] | Du145 cells | µM | 8.24
S=C=NCC(c1ccccc1)c1ccccc1 [Compound 40, 2-isothiocyanato-1,1-diphenylethane] | Du145 cells | µM | 3.65

In: Quote IC50 with test system Du145 cells for S=C=NCc1ccc(-c2ccccc2)cc1 [Compound 35, 1-(isothiocyanatomethyl)-4-phenylbenzene]
Out: 11

In: Quote IC50 with test system Du145 cells for S=C=NCc1ccc(Br)cc1 [Compound 26, 1-bromo-4-(isothiocyanatomethyl)benzene]
Out: 10.1

In: Quote IC50 with test system Du145 cells for S=C=NCc1ccccc1Br [Compound 25, 1-bromo-2-(isothiocyanatomethyl)benzene]
Out: 8.64

In: Quote IC50 with test system Du145 cells for S=C=NCCc1ccccc1 [Compound 38, 1-(2-isothiocyanatoethyl)benzene]
Out: 10.9

In: Quote IC50 with test system Du145 cells for COc1cccc(CN=C=S)c1OC [Compound 27]
Out: 8.24

In: Quote IC50 with test system Du145 cells for S=C=N[C@H]1CCCc2ccccc21 [Compound 31]
Out: 17.4

In: Quote IC50 with test system Du145 cells for COc1cc(OC)c(CN=C=S)c(OC)c1 [Compound 28]
Out: 4.8

In: Quote IC50 with test system Du145 cells for S=C=NCc1cccc(-c2ccccc2)c1 [Compound 34, 1-(isothiocyanatomethyl)-3-phenylbenzene]
Out: 3.87

In: Quote IC50 with test system Du145 cells for CS(=O)(=O)CCCCN=C=S [Compound 14]
Out: 4

---

test system: Du145 cells; experiment: Cell Titer-Glo cytotoxicity assay, Du145; format: cell-based; settings: Homo sapiens, DU-145; Du145, Cell Titer-Glo, 72 h; read-out: IC50
pIC50: −log10 of the molar value.
Classify as follows. Reported pIC50 greater than or equal to 5: 1 (yes). Reported pIC50 below: 0 (no).

Sample answers from the record:
Compound Smiles | Class Assignment
S=C=NCCC1=CCCCC1 | 0 (no)
S=C=NCc1ccc2c(c1)OCO2 | 1 (yes)
CCCCc1ccc(N=C=S)cc1 | 0 (no)
CC(C)CN=C=S | 0 (no)
S=C=Nc1ccccc1 | 0 (no)

In: # check: pIC50 of S=C=Nc1ccc(Br)cc1 is greater than or equal to 5
Out: 0 (no)

In: # check: pIC50 of S=C=NCc1ccccc1 is greater than or equal to 5
Out: 1 (yes)

---

Catalogue of pIC50 readings, one per entry.
test system: HT-29 cells; assay: MTT cytotoxicity assay, HT-29; type: cell-based; conditions: Homo sapiens, HT-29, 24 h
pIC50 is a log-scale quantity: -log10 of the concentration expressed in molar.

Compound | Target Of Assay | pIC50
C[S+]([O-])CCCCN=C=S (centres unmarked) [Compound 2, reference compound] | HT-29 cells | 4.34

Let's switch to this compound now.
In: Quote pIC50 with test system HT-29 cells for S=C=NCc1cccnc1
Out: 4.67

---

Catalogue of IC50 readings, one per entry.
test system: human cancer cell lines; assay: Cytotoxicity across the panel of human cancer cell lines (average, high-throughput assays); format: cell-based; conditions: Homo sapiens, read-out: Cancerous Average IC50 / Average IC50 in Cancer Cell Lines
The reply should contain only the number, in µM.

Compound | IC50, µM
C[S+]([O-])CCCCN=C=S (centres unmarked) [Compound 2, reference compound] | 5.26

Let's switch to this compound now.
In: Give IC50 for S=C=NCc1cccnc1
Out: 2.54

---

system: NmuMG mouse mammary normal epithelial cells; test: Cell Titer-Glo cytotoxicity assay, NmuMG; format: cell-based; conditions: Mus musculus, Epithelial cell, 72 h
Catalogue of IC50 readings, one per entry.
The reply should contain only the number, in µM.

Molecule | IC50 / µM
S=C=NCc1cccnc1 | 26

In: Quote IC50 with test system NmuMG mouse mammary normal epithelial cells for C[S+]([O-])CCCCN=C=S (centres unmarked) [Compound 2, reference compound]
Out: 6.59

---

Catalogue of pIC50 readings, one per entry.
test system: SF-268 cells; assay: Calcein AM cytotoxicity assay, SF-268; format: cell-based; details: Homo sapiens; SF-268, Calcein AM, 72 h; read-out: IC50
pIC50 is a log-scale quantity: -log10 of the concentration expressed in molar.

Here are 3 compounds together with their reported answers.
Compound Smiles | pIC50
S=C=N[C@@H]1CCCc2ccccc21 | 5.24
COc1cccc(CN=C=S)c1OC | 5.37
S=C=NCCc1ccccc1 | 5.06

In: Give pIC50 for CCCCc1ccc(N=C=S)cc1
Out: 4.67

---

Catalogue of pIC50 readings, one per entry.
System: MCF7 cells
Test: Calcein AM cytotoxicity assay, MCF7
Assay type: cell-based
Conditions: Homo sapiens; MCF7, Calcein AM, 72 h; read-out: IC50
From the text: Five serial 1:2 dilutions were made with anhydrous DMSO at 100× the final concentration used in the assay.
pIC50 is a log-scale quantity: -log10 of the concentration expressed in molar.

Here are 6 compounds together with their reported answers.
Compound Smiles | pIC50
S=C=NCC(c1ccccc1)c1ccccc1 | 5.44
S=C=NC1CC1 | 4.82
S=C=NCc1ccccc1Br | 5.17
S=C=NCc1ccc2c(c1)OCO2 | 5.50
CS(=O)(=O)CCCCN=C=S | 5.08
CCCCc1ccc(N=C=S)cc1 | 4.34

In: Give pIC50 for S=C=NCCC1=CCCCC1
Out: 4.56

In: Give pIC50 for S=C=Nc1ccc(Br)cc1
Out: 4.57

---

test system: SF-268 cells; test: Calcein AM cytotoxicity assay, SF-268; format: cell-based; details: Homo sapiens; SF-268, Calcein AM, 72 h; read-out: IC50
Endpoint Label: IC50 (µM)
The reply should contain only the number, in µM.

Here are 10 molecules together with their reported answers.
Molecule | Measurement Unit | IC50
S=C=NCc1ccc(Br)cc1 | µM | 10.9
S=C=NCc1ccc(-c2ccccc2)cc1 | µM | 6.26
S=C=NCc1ccccc1Br | µM | 6
S=C=Nc1ccccc1 | µM | 2.32
S=C=NCc1ccccc1 | µM | 11.5
S=C=N[C@H]1CCCc2ccccc21 | µM | 8.51
S=C=NCC(c1ccccc1)c1ccccc1 | µM | 3.49
S=C=NCc1ccccc1-c1ccccc1 | µM | 4.79
S=C=NCCC1=CCCCC1 | µM | 3.89
S=C=NCc1ccc2c(c1)OCO2 | µM | 2.55

In: Give IC50 for S=C=NCc1cccc(-c2ccccc2)c1
Out: 3.95

In: Give IC50 for C[S+]([O-])CCCCN=C=S (racemic)
Out: 5.69

In: Give IC50 for S=C=NCc1ccc(Oc2ccccc2)cc1
Out: 6.17

In: Give IC50 for COc1cc(OC)c(CN=C=S)c(OC)c1
Out: 4.61

In: Give IC50 for S=C=NCC1CCCCC1
Out: 15.1

In: Give IC50 for CS(=O)(=O)CCCCN=C=S
Out: 4.72

In: Give IC50 for S=C=NCc1cccc2ccccc12
Out: 2

---

system: MCF7 cells; test: Calcein AM cytotoxicity assay, MCF7; type: cell-based; details: Homo sapiens; MCF7, Calcein AM, 72 h; read-out: IC50
Endpoint Label: pIC50
pIC50 is a log-scale quantity: -log10 of the concentration expressed in molar.

Here are 2 compounds together with their reported answers.
Compound | Endpoint Label | Observed
C[S+]([O-])CCCCN=C=S (racemic) | pIC50 | 5.14
S=C=NCc1ccc(Br)cc1 | pIC50 | 5.15

Let's switch to this compound now.
In: Give pIC50 for S=C=N[C@H]1CCCc2ccccc21
Out: 4.84
